- tested-on: human Factor XIa (Homo sapiens (Human), UniProt P03951)
- Sequence (P03951 388-625): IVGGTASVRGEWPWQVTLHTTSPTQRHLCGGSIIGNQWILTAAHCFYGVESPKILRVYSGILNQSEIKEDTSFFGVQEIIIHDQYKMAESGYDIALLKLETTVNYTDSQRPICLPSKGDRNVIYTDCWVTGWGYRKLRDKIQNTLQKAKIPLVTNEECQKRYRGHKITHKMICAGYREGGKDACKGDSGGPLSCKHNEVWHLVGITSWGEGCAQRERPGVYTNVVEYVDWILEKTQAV
- Sequence (P03951 19-387 partner): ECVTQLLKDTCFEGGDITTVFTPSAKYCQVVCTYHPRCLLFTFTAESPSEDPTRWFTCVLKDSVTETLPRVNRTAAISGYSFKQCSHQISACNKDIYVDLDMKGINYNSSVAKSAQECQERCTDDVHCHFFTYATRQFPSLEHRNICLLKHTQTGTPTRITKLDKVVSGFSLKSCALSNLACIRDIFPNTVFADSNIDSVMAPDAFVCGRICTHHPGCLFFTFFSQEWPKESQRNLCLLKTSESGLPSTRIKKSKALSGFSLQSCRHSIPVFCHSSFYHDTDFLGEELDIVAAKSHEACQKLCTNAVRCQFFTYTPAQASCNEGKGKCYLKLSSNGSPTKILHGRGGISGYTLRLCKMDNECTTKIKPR
- experimental-protocol: Factor XIa Assay
- Format: biochemical
- cond: purified human Factor XIa 40 pM, Z-Gly-Pro-Arg-AFC 100 μM, pH 7.4; read-out: FXIa Ki
measurement-kind: Ki (nM)

Worked cases, Ki given:
## Input Short answer please: Ki, human Factor XIa (Homo sapiens (Human), UniProt P03951), entry COC(=O)Nc1ccc(C(=O)N[C@@H](Cc2ccsc2)C(=O)N2CCC3(C2)OC(=O)Nc2ccc(Cl)cc23)cc1 (stereo partly shown) [Example 32]
## Output 16

## Input Short answer please: Ki, human Factor XIa (Homo sapiens (Human), UniProt P03951), entry COC(=O)Nc1ccc(C(=O)N[C@H](CC(=O)N2CCC3(C2)OC(=O)Nc2ccc(Cl)cc23)Cc2ccccc2)cc1 (stereo partly shown) [Example 49]
## Output 362

## Input Short answer please: Ki, human Factor XIa (Homo sapiens (Human), UniProt P03951), entry COC(=O)Nc1ccc(C(=O)NCC(=O)N2CCC3(C2)OC(=O)Nc2ccc(Cl)cc23)cc1 (racemic) [Example 23]
## Output 248

A. COC(=O)Nc1ccc(C(=O)NC(C[C@@H]2CCCO2)C(=O)N2CCC[C@@]3(C2)OC(=O)Nc2ccc(Cl)c(F)c23)cc1 (single isomer, unassigned) [Example 116B]
B. O=C1Nc2ccc(Cl)cc2[C@@]2(CCCN(C(=O)C(Cc3ccc(F)cc3)c3nc(Cl)c(-c4ccc(F)cc4)[nH]3)C2)O1 (stereo partly shown) [Example 127]
C. CO[C@@H]1C[C@@H](C(=O)N2CC[C@@]3(C2)OC(=O)Nc2ccc(Cl)cc23)N(C(=O)c2ccc3nc(N)sc3c2)C1 [Example 290]
## Input Highest Ki first, then in falling order down to the smallest. Arrange the labels as the request states and list them.
## Output B, C, A
(B: 5000 nM, C: 2400 nM, A: 4.21 nM)
